- ASSAYED_TARGET: Toll-like receptor 4 (Homo sapiens, UniProt O00206)
- Sequence (O00206 whole entry): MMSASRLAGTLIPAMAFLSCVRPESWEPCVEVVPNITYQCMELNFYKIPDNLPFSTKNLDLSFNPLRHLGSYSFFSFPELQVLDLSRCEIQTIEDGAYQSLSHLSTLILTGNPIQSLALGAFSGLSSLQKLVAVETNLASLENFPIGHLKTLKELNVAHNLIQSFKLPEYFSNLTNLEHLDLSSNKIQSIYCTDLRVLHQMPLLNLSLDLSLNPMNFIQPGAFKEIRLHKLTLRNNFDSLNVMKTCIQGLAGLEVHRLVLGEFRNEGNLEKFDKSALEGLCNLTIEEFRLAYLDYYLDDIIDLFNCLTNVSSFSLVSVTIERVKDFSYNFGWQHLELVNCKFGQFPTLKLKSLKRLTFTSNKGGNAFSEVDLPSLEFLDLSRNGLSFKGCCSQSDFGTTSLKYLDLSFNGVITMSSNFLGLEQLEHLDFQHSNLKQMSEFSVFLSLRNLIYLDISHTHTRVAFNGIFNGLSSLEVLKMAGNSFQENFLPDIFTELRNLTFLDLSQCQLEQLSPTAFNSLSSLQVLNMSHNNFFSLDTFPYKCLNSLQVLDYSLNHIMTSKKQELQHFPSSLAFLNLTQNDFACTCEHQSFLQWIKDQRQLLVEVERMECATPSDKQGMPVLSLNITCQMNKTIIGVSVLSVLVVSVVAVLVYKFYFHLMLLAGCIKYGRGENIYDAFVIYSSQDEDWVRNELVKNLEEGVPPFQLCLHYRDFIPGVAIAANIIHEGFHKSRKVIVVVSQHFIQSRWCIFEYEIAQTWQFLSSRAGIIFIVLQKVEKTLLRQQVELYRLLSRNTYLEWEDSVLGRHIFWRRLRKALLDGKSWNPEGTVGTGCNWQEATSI
- MEASUREMENT_NOTES: Antagonist activity at human TLR4 expressed in HEK blue cells coexpressing MD-2/CD14 assessed as inhibition of LPS-induced NF-kappaB activation-mediated SEAP production after 24 hrs
- Format: cell-based
OUTCOME_MEASURE: IC50

// worked examples, IC50 included
CCOc1ccc(OCCC(O)CNCCOc2ccccc2OC)cc1 (stereo not drawn) : Not Active
CCOc1ccc(OCCC(O)CN(C)Cc2c(C)nn(Cc3ccccc3F)c2C)cc1 (stereo not drawn) : Not Active
Cc1nn(Cc2ccccc2Cl)cc1CN(C)CC(O)COc1cccc2[nH]c3ccccc3c12 (stereo not drawn) : Not Active
OC(CNc1ccc(F)cc1)COc1cccc2[nH]c3ccccc3c12 (stereo not drawn) : Not Active
C/N=C/c1cn(CC(O)COc2cccc3[nH]c4ccccc4c23)cn1 (stereo not drawn) : Not Active

Report IC50 for CCOc1ccc(OCC(O)CNCCOc2ccccc2OC)cc1 (stereo not drawn) please. Not Active

Param item: O=C1c2ccccc2C(=O)c2cc(NCC(O)COc3cccc4[nH]c5ccccc5c34)ccc21 (stereo not drawn) Not Active

Param item: CCOc1ccc(OCCC(O)CN(C)Cc2c(C)nn(Cc3ccccc3Cl)c2C)cc1 (stereo not drawn) Not Active

Reference for the values: ChEMBL document CHEMBL4152275
